# Tested on: DU-145 prostate
# TEST_NAME: NCI-60 one-dose screen, 48 h
# TEST_PARAMETERS: 10 µM unless noted
About 83,000 compounds went through this panel and 20% of them were active in at least one assay; those are over-represented in the sample as a whole. The source made the active and inactive calls. How the source made its calls: active means growth percent below 10; inactive means the rest.
Write down one outcome, taken from active, inactive

What did this assay record as the result for "O=C(C(=O)c1cc(Br)ccc1O)c1cc(Br)ccc1O" ?
inactive

What did this assay record as the result for "Cc1[nH]cnc1/C=C1\SC(N2CCCCC2)=NC1=O" ?
inactive

What did this assay record as the result for "NS(=O)(=O)c1ccc(-n2ncc3c(N/N=C/c4ccccc4)ncnc32)cc1" ?
inactive

What did this assay record as the result for "O=C1CNc2cc(Cl)ccc2N1" ?
inactive

What did this assay record as the result for "C/C(=C\CCc1ccoc1)CC/C=C(\C)CCCN1CCOCC1" ?
inactive

What did this assay record as the result for "FC(F)(F)c1cc(-c2nnc3n2N=C(N2CCCC2)CS3)cc(C(F)(F)F)c1" ?
inactive

What did this assay record as the result for "C(=C1c2ccccc2-c2ccccc21)c1ccncc1" ?
inactive

What did this assay record as the result for "COC(=O)[C@H]1[C@H]2C[C@@H]3c4[nH]c5cc(OC)ccc5c4CCN3C[C@H]2C[C@@H](OC(=O)/C=C/c2cc(OC)c(OC)c(OC)c2)[C@@H]1OC" ?
inactive

What did this assay record as the result for "O=C1Nc2ccc(Cl)cc2/C1=C/c1cccs1" ?
inactive

What did this assay record as the result for Cc1ccc2c(c1)C(=O)/C(=C\Nc1ccc(C(N)=O)cc1)C(O)O2 (centres undefined) ?
inactive

What did this assay record as the result for "Cc1cc(-c2ccccc2)cc(C)n1" ?
inactive

What did this assay record as the result for "CCOC(=O)Nc1cc(-c2ccc(C)c(NS(C)(=O)=O)c2)nn2c(C)nnc12" ?
inactive

What did this assay record as the result for CC(=O)N1N=C(c2ccc(Cl)cc2)CC1c1c(C)nn(-c2ccccc2)c1N(C)Cc1ccccc1 (centres undefined) ?
inactive

What did this assay record as the result for "Cc1csc(C#Cc2cncc(O)c2)n1" ?
inactive

What did this assay record as the result for "COc1cc(NC(=O)NCc2ccco2)ccc1-c1ccc(NC(=O)NCc2ccco2)cc1OC" ?
inactive

What did this assay record as the result for O=C(Oc1ccccc1)C(Br)C(Br)c1ccccc1 (centres undefined) ?
active

What did this assay record as the result for "NS(=O)(=O)c1ccc(-n2nc(-c3ccc(Br)cc3)ccc2=O)cc1" ?
inactive

What did this assay record as the result for "C[C@]12CC[C@H](O)CC1=CC[C@@H]1[C@@H]2CC[C@]2(C)C(c3cccnc3)=CC[C@@H]12" ?
inactive

What did this assay record as the result for "Cn1c(=O)c2[nH]c(=S)n(Cc3ccccc3)c2n(C)c1=O" ?
inactive

What did this assay record as the result for "O=C(Nc1ccccc1)P(=O)(O)c1ccccc1" ?
inactive

What did this assay record as the result for "N#Cc1c(-c2ccccc2)cc(-c2ccccc2)n(CC(=O)O)c1=O" ?
inactive

What did this assay record as the result for "O=[N+]([O-])c1ccc(N=Nc2c(Cl)cc(O)cc2Cl)cc1" ?
inactive

What did this assay record as the result for "O=C(Nc1nc(-c2ccc(Cl)cc2)cs1)c1cc(-c2ccc(Br)cc2)nc2ccc(Cl)cc12" ?
inactive

What did this assay record as the result for "CCOc1cc(/C=C/C(=O)CC(=O)/C=C/c2ccc(OC(=O)CNc3nc4ccc(OC)cc4s3)c(OCC)c2)ccc1OC(=O)CNc1nc2ccc(OC)cc2s1" ?
inactive

What did this assay record as the result for C[C@]12CCC(=O)C=C1CCC1C2[C@@H](O)C[C@@]2(C)C1CC[C@]2(O)C(=O)COC(=O)CCC(=O)O (some centres undefined) ?
inactive

What did this assay record as the result for "O=C1N=C(N2CCOCC2)S/C1=C\c1cn(-c2ccccc2)nc1-c1ccccc1" ?
inactive

What did this assay record as the result for "CCOC(=O)c1sc(NC(=O)COc2cccc(/C=C3\Cc4ccc(Cl)cc4C3=O)c2)nc1C" ?
inactive

What did this assay record as the result for "O=Nc1c2cccnc2n2nnc3ccc(Cl)cc3c12" ?
active

What did this assay record as the result for "C[C@H](C(=O)N[C@@H](Cc1ccc(-c2ccccc2)cc1)C(=O)NC1CC(C)(C)NC(C)(C)C1)c1ccc(-c2ccccc2)c(F)c1" ?
active
